*1 amine or outer side, *2 acyl side, *3 side chain or, on linkers, in order; H or OH if unused. Where a SMILES comes first, the peptide text is derived from it. [ ]: non-standard residue; d: D form. X3 = O=C(CC[C@H](Cc1ccc(O)cc1)N[*:1])[*:2]; Gly(octyl) = CCCCCCCC[C@H](N)C(=O)O; N(CH2CH2COOH)Gly = O=C(O)CCNCC(=O)O; Aze = O=C(O)[C@@H]1CCN1
porcine pancreatic elastase (Sus scrofa): reported IC50 for various compounds.
Sequence (P00772 27-266): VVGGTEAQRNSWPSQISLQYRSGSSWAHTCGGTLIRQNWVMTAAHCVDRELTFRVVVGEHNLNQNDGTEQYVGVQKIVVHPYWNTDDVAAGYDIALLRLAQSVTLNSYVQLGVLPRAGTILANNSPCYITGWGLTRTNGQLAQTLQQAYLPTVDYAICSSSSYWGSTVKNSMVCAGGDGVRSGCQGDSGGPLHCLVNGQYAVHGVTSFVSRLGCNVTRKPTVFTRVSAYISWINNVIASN
Your answer is read as µM, so omit the unit and give the number.

Compound	Endpoint value
CCCCCCCC[C@@H]1NC(=O)[C@@H]2CCCN2C(=O)[C@H]2CCCN2C(=O)[C@H]([C@@H](C)O)NC(=O)[C@H](CCCCN)NC(=O)[C@H](CCC(N)=O)NC(=O)[C@@H]2CCN2C(=O)[C@@H]2CCCN2C(=O)[C@H]([C@@H](C)CC)NC(=O)[C@H](CO)NC(=O)[C@H](C)NC(=O)[C@H]([C@@H](C)O)NC(=O)[C@H](CCC(=O)O)NC1=O [Example 46] (cyclo([Gly(octyl)]ETASIP[Aze]QKT[dP]P))	1.9
CCCCCCCC[C@@H]1NC(=O)[C@@H]2CCCN2C(=O)[C@H]2CCCN2C(=O)CC[C@H](Cc2ccc(O)cc2)NC(=O)[C@H](CCCCN)NC(=O)[C@H](CCC(N)=O)NC(=O)[C@@H]2CCCN2C(=O)[C@@H]2CCCN2C(=O)[C@H]([C@@H](C)CC)NC(=O)[C@H](CO)NC(=O)[C@H](C)NC(=O)[C@H]([C@@H](C)O)NC(=O)[C@H](CCC(=O)O)NC1=O [Example 8] (cyclo([Gly(octyl)]ETASIPPQK[X3][dP]P))	1.81
CCCCCCCC[C@@H]1NC(=O)[C@@H]2CCCN2C(=O)[C@H]2CCCN2C(=O)[C@H]([C@@H](C)O)NC(=O)[C@H](CCCCN)NC(=O)[C@H](CCC(N)=O)NC(=O)[C@@H]2CCCN2C(=O)CN(CCC(=O)O)C(=O)[C@H]([C@@H](C)CC)NC(=O)[C@H](CO)NC(=O)[C@H](C)NC(=O)[C@H]([C@@H](C)O)NC(=O)[C@H](CCC(=O)O)NC1=O [Example 7] (cyclo([Gly(octyl)]ETASI[N(CH2CH2COOH)Gly]PQKT[dP]P))	3.92

Answer with IC50 of CC[C@H](C)[C@@H]1NC(=O)[C@H](CO)NC(=O)[C@H](C)NC(=O)[C@H]([C@@H](C)O)NC(=O)[C@H](CCC(=O)O)NC(=O)[C@H](CCC(=O)N[C@@H](Cc2ccccc2)C(=O)O)NC(=O)[C@@H]2CCCN2C(=O)[C@H]2CCCN2C(=O)[C@H](Cc2ccc(O)cc2)NC(=O)[C@H](CCCCN)NC(=O)[C@H](CCC(N)=O)NC(=O)[C@@H]2CCCN2C(=O)[C@@H]2CCCN2C1=O [Example 18] (cyclo(E(Phe)ETASIPPQKY[dP]P)) measured for porcine pancreatic elastase (Sus scrofa).
74.1

Fill: IC50 (porcine pancreatic elastase (Sus scrofa)) for this compound CCCCCCCC[C@@H]1NC(=O)[C@H](C(C)C)NC(=O)[C@@H](CO)NC(=O)[C@H]([C@@H](C)O)NC(=O)[C@H](CCCCN)NC(=O)[C@H](CCC(N)=O)NC(=O)[C@@H]2CCCN2C(=O)[C@@H]2CCCN2C(=O)[C@H]([C@@H](C)CC)NC(=O)[C@H](CO)NC(=O)[C@H](C)NC(=O)[C@H]([C@@H](C)O)NC(=O)[C@H](CCC(=O)O)NC1=O [Example 30] (cyclo([Gly(octyl)]ETASIPPQKT[dS]V))
51.2

Origin of the recorded values: patent US10273267B2
